experiment: Metabolic stability in Spodoptera litura larvae feaces; type: ADME, organism-based; conditions: faeces, read-out: Drug recovery
VALUE KIND: dose excreted (%)

>>> print(df.to_string())
                            chemical_smiles     value_kind  reading
0  O=c1nc(-c2ccccc2Cl)sn1-c1ccc(OC(F)(F)F)cc1  dose excreted      3.5
